Attribution: the antibiotic and cytotoxicity screens of Wong et al. (2023)

tested on: S. aureus RN4220; assay: growth inhibition call (relative growth <= 0.2); conditions: 50 µM
The whole screen tested about 39,000 compounds, of which about 500 (1.3%) were called active. The full list was thinned out, with actives kept by preference.
Response enum: TRUE (active), FALSE (inactive)

Please let me know the test result on file for COC(=O)c1cc(=O)nc2n1[C@H]1O[C@H](CO)[C@H](O)[C@H]1O2 .
FALSE

Please let me know the test result on file for NCC[S@@](=O)c1c(-c2ccc(F)cc2)[nH]c2ccccc12 .
FALSE

Please let me know the test result on file for COc1cc(O)cc(OC)c1OC .
FALSE

Please let me know the test result on file for CCCC[P+](CCCC)(CCCC)Cc1ccc(NC(=O)[C@@H](Cc2ccc3ccccc3c2)N=C(NC2CCCCC2)NC2CCCCC2)cc1 .
TRUE

Please let me know the test result on file for Cc1noc(C)c1NC(=O)Nc1ccc2c(c1)CC(=O)N([C@H](C)CO)C[C@H](C)[C@H](CN(C)C(=O)Nc1ccc(C(F)(F)F)cc1)O2 .
FALSE

Please let me know the test result on file for C[C@@H]1CCCCO[C@H](CN(C)C(=O)Nc2cccc3ccccc23)[C@H](C)CN([C@@H](C)CO)C(=O)c2cc(N(C)C)ccc2O1 .
FALSE

Please let me know the test result on file for COc1ccc(S(=O)(=O)N(C)C[C@@H]2Oc3ccc(NC(=O)c4ccncc4)cc3C(=O)N([C@H](C)CO)C[C@@H]2C)cc1 .
FALSE

Please let me know the test result on file for C[C@H]1CN([C@@H](C)CO)C(=O)c2cc(NC(=O)NC3CCCCC3)ccc2O[C@H]1CN(C)Cc1ccc(Cl)c(Cl)c1 .
FALSE

Please let me know the test result on file for C[C@@H]1CN([C@@H](C)CO)C(=O)c2cc(NS(=O)(=O)c3cccs3)ccc2O[C@H]1CN(C)CC1CC1 .
FALSE

Please let me know the test result on file for COc1cccnc1N .
FALSE

Please let me know the test result on file for Cc1ccc(S(=O)(=O)N(C)C[C@H]2Oc3c(NS(=O)(=O)c4cn(C)cn4)cccc3C(=O)N([C@@H](C)CO)C[C@H]2C)cc1 .
FALSE

Please let me know the test result on file for COc1ccc(S(=O)(=O)Nc2ccc3c(c2)[C@H]2C[C@@H](CC(=O)NCC4CC4)O[C@H](CO)[C@H]2O3)cc1 .
FALSE

Please let me know the test result on file for CCOC(=O)Nc1ccc(C)s1 .
FALSE

Please let me know the test result on file for COc1cc(CN)cc(OC)c1OC .
FALSE

Please let me know the test result on file for CO[C@@]12[C@@H]3N[C@@H]3CN1C1=C(C(=O)C(N)=C(C)C1=O)[C@@H]2COC(N)=O .
TRUE

Please let me know the test result on file for O=C([C@H]1[C@H](CO)[C@H]2Cn3c(cccc3=O)[C@@H]1N2CC1CCCC1)N1CCOCC1 .
FALSE

Please let me know the test result on file for CCCC[P+](CCCC)(CCCC)Cc1ccc(NC(=O)[C@H](Cc2ccc3ccccc3c2)N/C(=N/C2CCCCC2)NC2CCCCC2)cc1 .
TRUE

Please let me know the test result on file for Cn1c(=O)c2c(nc(NCCO)n2C)n(C)c1=O .
FALSE

Please let me know the test result on file for CC(=O)N1[C@@H]2c3ccc(-c4ccccc4)c(=O)n3C[C@H]1[C@H](CO)[C@H]2C(=O)N1CCN(C)CC1 .
FALSE

Please let me know the test result on file for C[C@@H]1CN([C@@H](C)CO)C(=O)c2cc(NC(=O)Nc3ccc4c(c3)OCO4)ccc2O[C@@H](C)CCCCO[C@@H]1CN(C)C(=O)C1CCCCC1 .
FALSE

Please let me know the test result on file for CC(C)NC(=O)Nc1ccc2c(c1)CC(=O)N([C@H](C)CO)C[C@@H](C)[C@@H](CN(C)C(=O)NC1CCCCC1)O2 .
FALSE

Please let me know the test result on file for COc1ccc(C2=C(N)C(=O)NC2=O)cc1OC .
FALSE

Please let me know the test result on file for CSc1c(-c2ccc(Cl)cc2)[nH]c2ccccc12 .
TRUE

Please let me know the test result on file for COCC#Cc1ccc2c(c1)O[C@@H](CN(C)C(=O)c1ccccc1)[C@@H](C)CN([C@@H](C)CO)S2(=O)=O .
FALSE

Please let me know the test result on file for C[C@@H]1CN([C@@H](C)CO)C(=O)c2cc(NS(=O)(=O)c3ccc(F)cc3)ccc2O[C@H]1CN(C)C(=O)Nc1ccc(C(F)(F)F)cc1 .
FALSE

Please let me know the test result on file for O=C(CO)N1C[C@H]2C[C@@H]1C[C@@H]2Oc1cccnc1 .
FALSE

Please let me know the test result on file for COc1cc(Cc2cnc(N)nc2N)cc(OC)c1OC .
TRUE

Please let me know the test result on file for COC12C(COC(N)=O)C3=C(C(=O)C(C)=C(N)C3=O)N1CC1NC12 (centres undefined) .
TRUE

Please let me know the test result on file for C[C@H]1CCCCO[C@@H](CN(C)C(=O)Nc2ccccc2)[C@@H](C)CN([C@@H](C)CO)C(=O)c2cc(NC(=O)c3ccccc3)ccc2O1 .
FALSE

Please let me know the test result on file for C[C@@H]1CN([C@@H](C)CO)C(=O)c2cc(NS(C)(=O)=O)ccc2O[C@@H]1CN(C)C(=O)Nc1ccc2c(c1)OCO2 .
FALSE

Please let me know the test result on file for C[C@@H]1CN([C@H](C)CO)C(=O)c2cc(NC(=O)Nc3cccc4ccccc34)ccc2O[C@@H]1CN(C)C(=O)NC1CCCCC1 .
FALSE

Please let me know the test result on file for C[C@H](CO)N1C[C@H](C)[C@H](CN(C)C(=O)Nc2ccc(F)cc2)OCc2ccccc2-c2ccccc2C1=O .
FALSE

Please let me know the test result on file for C[C@H]1CN([C@@H](C)CO)C(=O)c2cccc(NS(C)(=O)=O)c2O[C@@H]1CN(C)C(=O)Nc1ccc2c(c1)OCO2 .
FALSE

Please let me know the test result on file for O=C(C[C@@H]1C=C[C@@H](NS(=O)(=O)c2ccc(F)cc2)[C@H](CO)O1)N1CCC(Cc2ccccc2)CC1 .
FALSE

* * *

test system: S. aureus RN4220; experiment: growth inhibition call (relative growth <= 0.2); conditions: 50 µM
Hit rate of the full screen: of about 39,000 compounds, about 500 (1.3%) were called active. For the sample, actives were picked, then their nearest neighbours and some compounds at random.
Response enum: yes (1) = active, no (0) = inactive

Please let me know the test result on file for CC(=O)N(C)C[C@H]1Oc2ncc(C#C[C@@H](C)O)cc2C(=O)N([C@@H](C)CO)C[C@@H]1C .
no (0)

Please let me know the test result on file for CN1CCN(C(=O)C[C@@H]2CC[C@H]3[C@@H](COC[C@H](O)CN3C(=O)Nc3cc(Cl)cc(Cl)c3)O2)CC1 .
no (0)

Please let me know the test result on file for CC(C)NC(=O)NCC[C@H]1CC[C@H](NC(=O)CN(C)C)[C@@H](CO)O1 .
no (0)

Please let me know the test result on file for O=C(Nc1nc(OCCN2CCCC2=O)cnc1-c1cc(Cl)cc(Cl)c1)c1cc2ccccc2s1 .
no (0)

Please let me know the test result on file for C[C@@H]1CN([C@H](C)CO)S(=O)(=O)c2ccc(C#CC3CCCCC3)cc2O[C@@H]1CN(C)C(=O)Cc1ccncc1 .
no (0)

Please let me know the test result on file for C[C@H](CO)N1C[C@H](C)[C@H](CN(C)C(=O)Nc2ccccc2)OCCCC[C@H](C)Oc2ccc(NC(=O)Nc3ccc(F)cc3)cc2C1=O .
no (0)

Please let me know the test result on file for O=C(C[C@@H]1CC[C@@H]2[C@H](COC[C@H](O)CN2C(=O)Nc2cc(Cl)cc(Cl)c2)O1)N1CCOCC1 .
yes (1)

Please let me know the test result on file for O=C(C[C@@H]1CC[C@H]2[C@@H](COC[C@@H](O)CN2C(=O)Nc2cc(Cl)cc(Cl)c2)O1)N1CCOCC1 .
yes (1)

* * *

tested on: S. aureus RN4220; test: growth inhibition call (relative growth <= 0.2); conditions: 50 µM
In all, about 39,000 compounds went through this assay and about 500 (1.3%) were called active. For the sample, actives were picked, then their nearest neighbours and some compounds at random.
Measured attribute: growth inhibition call

CCCCCCCCCC(=O)N[C@H]1[C@H](Oc2c3cc4cc2Oc2ccc(cc2Cl)[C@@H](O[C@@H]2O[C@H](CO)[C@@H](O)[C@H](O)[C@H]2NC(C)=O)[C@@H]2NC(=O)[C@H](NC(=O)[C@@H]4NC(=O)[C@H]4NC(=O)[C@@H](Cc5ccc(c(Cl)c5)O3)NC(=O)[C@@H](N)c3ccc(O)c(c3)Oc3cc(O)cc4c3)c3ccc(O)c(c3)-c3c(O[C@H]4O[C@H](CO)[C@@H](O)[C@H](O)[C@@H]4O)cc(O)cc3[C@H](C(=O)O)NC2=O)O[C@H](CO)[C@@H](O)[C@@H]1O | active
Cc1noc(C)c1S(=O)(=O)N(C)C[C@H]1Oc2ccc(NS(=O)(=O)c3ccccc3)cc2CC(=O)N([C@H](C)CO)C[C@@H]1C | inactive
O=C(Nc1ccc(Br)cc1)c1ccc(N2C(=O)c3ccc(C(=O)Nc4ccc(Br)cc4)cc3C2=O)cc1 | inactive
CCCCCC=CCCC(=O)NC1C(Oc2c3cc4cc2Oc2ccc(cc2Cl)C(OC2OC(CO)C(O)C(O)C2NC(C)=O)C2NC(=O)C(NC(=O)C4NC(=O)C4NC(=O)C(Cc5ccc(c(Cl)c5)O3)NC(=O)C(N)c3ccc(O)c(c3)Oc3cc(O)cc4c3)c3ccc(O)c(c3)-c3c(OC4OC(CO)C(O)C(O)C4O)cc(O)cc3C(C(=O)O)NC2=O)OC(CO)C(O)C1O (centres undefined) [TEICOPLANIN [A(2-1) shown]] | active
